System: SN12C renal
assay notes: NCI-60 one-dose screen, 48 h (100 = growth as untreated, 0 = no growth, -100 = all killed)
experimental conditions: 10 µM unless noted
Experimental: Growth inhibition of the SN12C human tumor cell line is measured as a screen for anti-cancer activity. Cells are grown in 96 well plates and exposed to the test compound for 48 hours. Compounds are tested at a single concentration, which is 10^-5 M for most compounds. The reported endpoint is percent growth (GI% or GIPRCNT), where numbers from 0 - 100% represent growth inhibition, and numbers from -100% - 0 represent cell death. For example, a value of 40 represents 60% growth inhibition. […]
This is part of a sample that, as a whole, favours compounds with a hit. Of some 83,000 tested, about 20% had one in any assay.
endpoint label: growth (%)
State just the number; it will be interpreted in %.

Prompt line: // returns reported growth for input CCCC(=O)CC(=O)c1ccccc1
Response line: 96.3

Prompt line: // returns reported growth for input CCOC(=O)CSCCC#N
Response line: 97.9

Prompt line: // returns reported growth for input O=C(NCc1ccccc1)/C(=C/c1ccccc1)NC(=O)c1ccccc1
Response line: 100

Prompt line: // returns reported growth for input C=CCC(O)C=C (stereo unspecified)
Response line: 101

Prompt line: // returns reported growth for input CC(=O)Nc1ccc(C(=O)c2ccc(S(=O)(=O)Nc3ccccc3)cc2)cc1
Response line: 98.6

Prompt line: // returns reported growth for input C=CC(=O)OC1CCC(C(C)(C)CC)CC1 (stereo unspecified)
Response line: 103

Prompt line: // returns reported growth for input CCNc1ncnc2[nH]ncc12
Response line: 96.9

Prompt line: // returns reported growth for input Cc1ccc([N+](=O)[O-])c(C)n1
Response line: 106

Prompt line: // returns reported growth for input O=C1C=Cc2ccccc2/C1=C/c1[nH]c(=O)[nH]c1O
Response line: 60.6

Prompt line: // returns reported growth for input CC(C)c1ccc(C(=O)OCCCl)cc1
Response line: 99.3

Prompt line: // returns reported growth for input Nc1cccc2cccc(O)c12
Response line: 91

Prompt line: // returns reported growth for input CC(C)(C)[Si](C)(C)OCC1OC(n2cnc3c(N)ncnc32)CC1OS(C)(=O)=O (stereo unspecified)
Response line: 101

Prompt line: // returns reported growth for input O=S(Cc1ccccc1)/C(=C/NC(=S)Nc1cc(Cl)ccc1Cl)c1ccccc1 (stereo unspecified)
Response line: 98.5

Prompt line: // returns reported growth for input O=C(OCc1ccccc1)n1nnc2ccccc21
Response line: 97

Prompt line: // returns reported growth for input CC(=O)N(C(C)=O)c1ccc(C)cc1
Response line: 96.1

Prompt line: // returns reported growth for input CC(=O)OC(C)c1cccc(C#N)c1 (stereo unspecified)
Response line: 99.1

Prompt line: // returns reported growth for input O=C(CCCl)OCCOc1ccccc1
Response line: 104

Prompt line: // returns reported growth for input OC(CCN1CCCCC1)(c1ccccc1)c1ccccc1
Response line: 108

Prompt line: // returns reported growth for input CCOC(=O)C(CCC#N)(CCC#N)C(=O)OCC
Response line: 105

Prompt line: // returns reported growth for input OCC1CCC(O)C(CO)N1 (stereo unspecified)
Response line: 103

Prompt line: // returns reported growth for input C=C1C(=O)C2CCC1C2 (stereo unspecified)
Response line: 104

Prompt line: // returns reported growth for input COc1ccc(Br)c(C=O)c1
Response line: 63.9

Prompt line: // returns reported growth for input COc1cc(C(=O)O)c(O)c(C(C)(C)C)c1
Response line: 103

Prompt line: // returns reported growth for input Cc1cc(C)cc(OCC(=O)O)c1
Response line: 99.1

Prompt line: // returns reported growth for input S=c1nc(-c2ccccn2)c(-c2ccccn2)n[nH]1
Response line: 118

Prompt line: // returns reported growth for input C=C(C)[C@@H]1CC[C@]2(CO)CC[C@]3(C)[C@H](CC[C@@H]4[C@@]5(C)CC[C@H](O)C(C)(C)[C@@H]5CC[C@]43C)[C@@H]12
Response line: 47.5

Prompt line: // returns reported growth for input CCOC(=O)C1(N)CCCCC1
Response line: 93.1

Prompt line: // returns reported growth for input O=C(O)c1cc(I)ccc1O
Response line: 95.3

Prompt line: // returns reported growth for input O=c1cc(Cl)nc2ccccn12
Response line: 102

Prompt line: // returns reported growth for input COC(=O)Cc1cc(COC(C)=O)ccc1C
Response line: 114

Prompt line: // returns reported growth for input CCCCCCCCCCC(=O)CCCCCCCCCC
Response line: 102

---

System: MDA-MB-231 breast
assay notes: NCI-60 one-dose screen, 48 h (100 = growth as untreated, 0 = no growth, -100 = all killed)
experimental conditions: 10 µM unless noted
Procedure: Cells are grown in 96 well plates and exposed to the test compound for 48 hours. Compounds are tested at a single concentration, which is 10^-5 M for most compounds. The reported endpoint is percent growth (GI% or GIPRCNT), where numbers from 0 - 100% represent growth inhibition, and numbers from -100% - 0 represent cell death. For example, a value of 40 represents 60% growth inhibition. A value of 0 means no net growth occurred over the course of the experiment. […]
Compounds without any hit were thinned out: in the full panel of roughly 83,000, 20% have a hit. Active and inactive are the calls of the source. The calls were made as follows: active = growth percent below 10; inactive = the rest.
endpoint label: growth

Prompt line: // returns reported growth for input O=C(O)Cc1ccccn1
Response line: 116% (inactive)

Prompt line: // returns reported growth for input Cc1ccc(S(=O)(=O)CCCl)cc1
Response line: 117% (inactive)

Prompt line: // returns reported growth for input CCCCNc1ccc(-c2ccc(NCCCC)cc2)cc1
Response line: 84.1% (inactive)

Prompt line: // returns reported growth for input Cc1cccc(-[n+]2noc(N)n2)c1
Response line: 53.7% (inactive)

Prompt line: // returns reported growth for input Nc1ccc2c(c1)Cc1cc(N)c(N)cc1-2
Response line: 84% (inactive)

Prompt line: // returns reported growth for input CC(=O)NC(CCC(=O)c1ccccc1)C(=O)O (stereo unspecified)
Response line: 107% (inactive)

Prompt line: // returns reported growth for input CC(=O)N(C(C)=O)c1ccc(C)cc1
Response line: 102% (inactive)

Prompt line: // returns reported growth for input CC(C)NC(=O)OCc1c(COC(=O)NC(C)C)c(-c2ccc(Cl)cc2)n2c1CCC2
Response line: 65.8% (inactive)

Prompt line: // returns reported growth for input Cc1ccc(C)c(CN(C)C)c1O
Response line: 109% (inactive)

Prompt line: // returns reported growth for input O=C(O)CC1=CCCCC1
Response line: 98% (inactive)

Prompt line: // returns reported growth for input CCOC(=O)C(COS(C)(=O)=O)(COS(C)(=O)=O)C(=O)OCC
Response line: 109% (inactive)

---

Test system: SK-MEL-5 melanoma
assay notes: NCI-60 one-dose screen, 48 h (100 = growth as untreated, 0 = no growth, -100 = all killed)
experimental conditions: 10 µM unless noted
The panel holds about 83,000 compounds, 20% with a hit somewhere; the sample as a whole holds those more often.
endpoint label: growth (%)
State just the number; it will be interpreted in %.

Prompt line: // returns reported growth for input COc1ccc(Br)c(C=O)c1
Response line: 81.8

Prompt line: // returns reported growth for input NC(=S)N/N=C/c1ccc(OC(=O)COc2ccc(Cl)cc2)cn1
Response line: 30.7

Prompt line: // returns reported growth for input CN(C)c1ncnc2c1cnn2C
Response line: 97.2

Prompt line: // returns reported growth for input COc1ccc(C2CC(c3ccccc3)=Nc3ccccc3S2)cc1 (centres undefined)
Response line: 94.2

Prompt line: // returns reported growth for input Cc1ccc(OC(=O)c2ccccc2)cc1
Response line: 101

Prompt line: // returns reported growth for input CCCCn1cnc2c(=O)[nH]cnc21
Response line: 119

Prompt line: // returns reported growth for input Nc1cc2ccccc2c(O)c1O
Response line: 74.7

Prompt line: // returns reported growth for input CCOC(=O)C1(N)CCCCC1
Response line: 106

Prompt line: // returns reported growth for input CC(CC(CCC(=O)O)(c1ccccc1)c1ccccc1)N(C)C (centres undefined)
Response line: 95.5

Prompt line: // returns reported growth for input Cc1cc(CO)c(O)c(CO)c1
Response line: 108

Prompt line: // returns reported growth for input O=C(O)Cc1ccc(Cl)cc1
Response line: 114

Prompt line: // returns reported growth for input O=C(O)Cc1ccccn1
Response line: 104

Prompt line: // returns reported growth for input O=S(=O)(O)c1ccc(O)c(C2CCCCC2)c1
Response line: 101

Prompt line: // returns reported growth for input CNc1ccccc1C(=O)N/N=C/C=C/c1ccccc1
Response line: 18.2

Prompt line: // returns reported growth for input COc1c(CNC(=O)CCl)cc2[nH]c(C)cc2c1CNC(=O)CCl
Response line: 44.1

Prompt line: // returns reported growth for input O=C(CCl)Oc1ccc([N+](=O)[O-])cc1
Response line: 103

Prompt line: // returns reported growth for input Cc1ccc(C)c2c1CCC2=O
Response line: 97.5

Prompt line: // returns reported growth for input O=C(c1ccccc1)c1ccc(-c2ccc(O)cc2)cc1
Response line: 23.6

Prompt line: // returns reported growth for input Oc1cccc(CNC2CCCCC2)c1
Response line: 103

Prompt line: // returns reported growth for input O=[N+]([O-])c1c(O)c(CNCCCO)cc(CNCCCO)c1O
Response line: 119

Prompt line: // returns reported growth for input O=c1cc(C(F)(F)F)[nH]c(=S)[nH]1
Response line: 98.7

Prompt line: // returns reported growth for input CC(C)NC(=O)OCc1c(COC(=O)NC(C)C)c(-c2ccc(Cl)cc2)n2c1CCC2
Response line: 68.1

Prompt line: // returns reported growth for input CCCCCC(=O)OCCC1CCCCC1
Response line: 100

Prompt line: // returns reported growth for input CCOC(C=O)OCC
Response line: 106

Prompt line: // returns reported growth for input CC(=O)NCNC(C)=O
Response line: 102

Prompt line: // returns reported growth for input Cc1onc(-c2ccccc2Cl)c1C(=O)Cl
Response line: 106

Prompt line: // returns reported growth for input CC(=O)[C@@]1(O)CC[C@H]2[C@@H]3CC[C@@H]4CC(=O)CC[C@]4(C)[C@H]3[C@@H](O)C[C@@]21C
Response line: 99.4

Prompt line: // returns reported growth for input Cc1ccc(C)c(CN(C)C)c1O
Response line: 107

Prompt line: // returns reported growth for input S=C(Sc1ccc(Cl)cc1)Sc1ccc(Cl)cc1
Response line: 65.9

Prompt line: // returns reported growth for input ClCC(Cl)C1CCC(Cl)C(Cl)C1 (centres undefined)
Response line: 105

Prompt line: // returns reported growth for input O=C(O)c1cccc(-n2ncc(Cl)c(Cl)c2=O)c1
Response line: 98

Prompt line: // returns reported growth for input Oc1cccnc1CN1CCCC1
Response line: 99.8

Prompt line: // returns reported growth for input Cc1ccc(S(=O)(=O)NC(=O)NCCSSCCNC(=O)NS(=O)(=O)c2ccc(C)cc2)cc1
Response line: 97.8

Prompt line: // returns reported growth for input BrCc1cccc(C[P+](c2ccccc2)(c2ccccc2)c2ccccc2)c1
Response line: 22.6
